# measured_target: T1, CD101 (human, UniProt Q93033 21-1021)
# T1 chain: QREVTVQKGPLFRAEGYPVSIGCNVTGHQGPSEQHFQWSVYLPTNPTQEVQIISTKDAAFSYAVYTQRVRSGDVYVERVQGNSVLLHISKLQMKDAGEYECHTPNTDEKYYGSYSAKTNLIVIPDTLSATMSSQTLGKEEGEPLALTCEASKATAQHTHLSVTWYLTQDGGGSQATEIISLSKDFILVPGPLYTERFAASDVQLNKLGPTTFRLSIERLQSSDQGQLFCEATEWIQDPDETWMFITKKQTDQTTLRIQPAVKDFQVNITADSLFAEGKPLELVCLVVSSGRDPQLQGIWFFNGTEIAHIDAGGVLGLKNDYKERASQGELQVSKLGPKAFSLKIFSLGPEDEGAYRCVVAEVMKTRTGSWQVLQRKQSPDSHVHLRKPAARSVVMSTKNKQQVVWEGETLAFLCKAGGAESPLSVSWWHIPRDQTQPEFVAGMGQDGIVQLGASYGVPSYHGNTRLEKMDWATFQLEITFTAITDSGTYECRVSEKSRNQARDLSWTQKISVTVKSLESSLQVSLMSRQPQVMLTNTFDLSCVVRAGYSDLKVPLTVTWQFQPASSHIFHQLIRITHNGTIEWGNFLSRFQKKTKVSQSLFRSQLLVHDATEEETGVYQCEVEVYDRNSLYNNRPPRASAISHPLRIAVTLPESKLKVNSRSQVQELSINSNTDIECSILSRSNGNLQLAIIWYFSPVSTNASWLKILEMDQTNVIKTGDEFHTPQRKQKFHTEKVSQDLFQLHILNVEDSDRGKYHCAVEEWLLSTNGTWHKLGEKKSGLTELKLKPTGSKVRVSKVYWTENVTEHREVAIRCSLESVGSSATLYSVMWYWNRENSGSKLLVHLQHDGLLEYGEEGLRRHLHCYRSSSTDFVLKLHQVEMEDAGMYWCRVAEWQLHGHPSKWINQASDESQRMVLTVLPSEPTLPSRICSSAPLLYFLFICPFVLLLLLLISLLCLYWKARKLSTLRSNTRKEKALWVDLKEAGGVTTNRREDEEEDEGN
# protocol_summary: FACS
outcome_measure: EC50 (µg/mL)

binder	experimental_value
humanized antibody VH1-VL1 (hu.CA1) (antibody, V domains shown) VH: EVQLVQSGAEVKKPGASVKVSCKASGFTLTEYTIHWVRQAPGQGLEWIGWFYPGSGGIKYNEKFQDRVTLTADESISTVYMELSRLRSDDTAVYFCARHAFYRNYEYFDVWGTGTMVTVSS VL: DIVMTQAPFSLPVTPGTPASISCRSSKSLLHSNGITYLYWYLQKPGQSPQLLIYQMSNLASGVPDRFSSSGSGTDFTLKISRVEAEDVGVYYCAQNLELPLTFGAGTKLEIK	7.9
